- System: HOP-92 NSCLC
- method: NCI tumour cell line growth inhibition, 48 h
Below, each entry is listed with its recorded TGI.

{"compound": "CC1C=CC(OC(=O)C(C)(O)CCC(O)(C(=O)OC2CC(O)C(C(C)C)CC2(C)O)C(C)C)(C(C)C)CC1 (stereo not drawn)", "experimentalEndpoint": "TGI", "recordedMeasurement": "1.86 µM"}
{"compound": "C/C(=N\\O)c1cccc(Nc2cc(-n3ccnc3)c3ccccc3n2)c1", "experimentalEndpoint": "TGI", "recordedMeasurement": "92.1 µM"}
{"compound": "Cc1cnc2c(c1C)C(=O)c1ccccc1C2=O", "experimentalEndpoint": "TGI", "recordedMeasurement": "> 100 µM"}
{"compound": "CCOc1ccc(NC(=O)CCc2nnc(SC)o2)cc1", "experimentalEndpoint": "TGI", "recordedMeasurement": "> 100 µM"}
{"compound": "O=C(O)CCNS(=O)(=O)c1ccc([N+](=O)[O-])cc1", "experimentalEndpoint": "TGI", "recordedMeasurement": "> 100 µM"}

Item: N#Cc1nc(C#N)n(S(=O)(=O)c2ccccc2)c1NS(=O)(=O)c1ccccc1 | TGI: > 100 µM

Lookup result for Cn1c(=O)n2n(c1=O)C(C)(C13CC4CC(CC(C4)C1)C3)C13CC4CC(CC1C4)CC23 (stereo not drawn) ; measured TGI: > 100 µM

TGI recorded for this compound, CO/N=C1/c2sccc2[C@H](NC(=O)C(Cc2ccccc2)NC(=O)OC(C)(C)C)[C@@H]1O (stereo partly drawn) , is > 100 µM

The value of TGI measured for the compound COc1cc(Nc2nc3cc(C(F)(F)F)ccc3n3cccc23)cc(OC)c1OC turned out to be > 100 µM

The measured TGI associated with CNNC(=NS(=O)(=O)c1cc(C#N)c(NNC)cc1S)NNC reads > 10 µM

response.value for CCCCCCCCCCCC[N+](CCCCCCCCCCCC)=C1SCCS1 (field: TGI) = 23.1 µM

Measured TGI, C=CCC1(C)CCCN(Cc2ccccc2)C1=O (stereo not drawn) : > 10 µM

TGI measured on CCN1C(=O)N(CC)C2C1NN=c1s/c(=C\c3ccc(F)cc3)c(=O)n12 (stereo not drawn) = > 100 µM

###

- Tested on: SW-620 colon
- method: NCI tumour cell line growth inhibition, 48 h
Reported TGI values are given for each entry in this list.

{"compound": "N#CCCC1(CCC#N)CCCCCCCCC(CCC#N)(CCC#N)C(O)C1O (stereo not drawn)", "system": "SW-620 colon", "TGI": "> 100 µM"}

For record CC(C)(CCC(C)(C)N1OC1c1ccccc1)N1OC1c1ccccc1 (stereo not drawn) the listed TGI is > 100 µM

TGI reported for this compound Clc1ccc2oc(CCc3ccccc3)nc2c1 : > 100 µM

###

- System: SF-268 CNS
- method: NCI tumour cell line growth inhibition, 48 h; in the data active = GI50 below about 0.43 µM; inactive = the rest
Output constraint: value belongs to active, inactive

{"structureString": "Oc1cccc2c1NCCC2", "className": "active"}
{"structureString": "COC(=O)c1cc(-c2ccc(OC)c(OC)c2)[nH]c1N/N=C/c1c(Cl)cccc1Cl", "className": "inactive"}

Next up:
Exercise: Query: recorded result category for COc1cc(O)c2c(=O)c(OC)c(-c3ccc(OC)c(OC)c3)oc2c1 in this test
Solution: inactive
